# System: CEM cells
# assay-details: Cytostatic activity assay, CEM cells
# Format: cell-based
# test-parameters: Homo sapiens, CCRF-CEM, 72 h; inhibition of cell proliferation by 50%, three-day drug-exposed; mean ± SD
Assign pIC50 to each entry below.
Quick note: pIC50 means taking -log10 of the concentration in moles per liter.

IN: Recorded pIC50 of CCCC[Te]CCCS(=O)(=O)O , please.
OUT: 3.99

IN: Recorded pIC50 of CN(C)c1ccc([Te]CCCOc2ccccc2)cc1 , please.
OUT: 4.66

// data source = paper PMC4729491
